Would you mind telling me the reported pEC50 of each entry?
molecular target: delF508-CFTR (Homo sapiens, UniProt P13569, DEL508-508); construct: expressed in transfected cells; assay: Measurement of delF508-CFTR-HRP surface expression in CFBE41o- cells; format: cell-based; details: HRP-tagged delF508-CFTR in CFBE41o- cells, 24 h with compound, luminescence, 10-point curve, top 10 μM
Sequence (P13569 with tags, fused parts or gaps DEL508-508): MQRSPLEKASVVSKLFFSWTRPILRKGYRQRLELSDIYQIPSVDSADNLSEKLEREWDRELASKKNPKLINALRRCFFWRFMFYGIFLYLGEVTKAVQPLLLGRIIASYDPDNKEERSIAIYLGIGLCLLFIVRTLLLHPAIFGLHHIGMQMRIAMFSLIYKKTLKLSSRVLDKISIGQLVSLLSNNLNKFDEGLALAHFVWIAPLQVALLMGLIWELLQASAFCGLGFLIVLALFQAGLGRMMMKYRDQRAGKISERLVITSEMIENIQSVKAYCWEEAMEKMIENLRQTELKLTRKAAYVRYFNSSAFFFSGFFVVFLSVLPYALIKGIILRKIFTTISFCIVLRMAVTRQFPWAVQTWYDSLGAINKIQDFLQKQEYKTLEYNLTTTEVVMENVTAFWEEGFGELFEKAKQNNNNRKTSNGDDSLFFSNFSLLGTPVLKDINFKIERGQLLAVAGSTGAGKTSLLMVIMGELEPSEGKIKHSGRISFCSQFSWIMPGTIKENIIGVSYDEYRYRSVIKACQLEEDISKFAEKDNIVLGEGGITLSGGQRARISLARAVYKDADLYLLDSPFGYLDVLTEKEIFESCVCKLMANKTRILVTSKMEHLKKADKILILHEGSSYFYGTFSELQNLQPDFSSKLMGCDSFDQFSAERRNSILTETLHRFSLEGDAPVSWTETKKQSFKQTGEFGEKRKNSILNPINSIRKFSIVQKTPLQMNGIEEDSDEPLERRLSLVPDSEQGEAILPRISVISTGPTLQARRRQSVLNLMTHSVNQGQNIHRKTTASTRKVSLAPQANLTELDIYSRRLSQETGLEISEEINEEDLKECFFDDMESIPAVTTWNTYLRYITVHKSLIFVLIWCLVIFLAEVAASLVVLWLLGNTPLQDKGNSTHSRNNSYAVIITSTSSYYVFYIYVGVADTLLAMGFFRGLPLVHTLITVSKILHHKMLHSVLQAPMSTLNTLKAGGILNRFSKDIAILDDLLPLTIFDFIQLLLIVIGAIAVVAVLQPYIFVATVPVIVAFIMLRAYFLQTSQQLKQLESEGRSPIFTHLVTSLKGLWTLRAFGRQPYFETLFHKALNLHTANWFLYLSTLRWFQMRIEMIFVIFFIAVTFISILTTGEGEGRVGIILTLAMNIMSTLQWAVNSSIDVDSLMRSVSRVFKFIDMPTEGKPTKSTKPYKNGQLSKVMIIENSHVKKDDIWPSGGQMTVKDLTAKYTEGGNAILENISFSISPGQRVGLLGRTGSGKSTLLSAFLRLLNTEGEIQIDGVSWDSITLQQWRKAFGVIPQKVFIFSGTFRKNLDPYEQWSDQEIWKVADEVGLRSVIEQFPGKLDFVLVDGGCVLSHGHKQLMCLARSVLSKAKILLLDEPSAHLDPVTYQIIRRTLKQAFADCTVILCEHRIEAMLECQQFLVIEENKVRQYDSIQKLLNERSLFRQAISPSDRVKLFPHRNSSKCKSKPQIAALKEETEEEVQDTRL
One number for each entry, as −log10 of the molar value.

Examples from the recorded data:
INSERT INTO assay_data (molecule, assay_target, numeric_result) VALUES
  ('CC(C)c1ccccc1-c1nc(NS(=O)(=O)c2cccc(N3CCC(OCC(=O)O)CC3)n2)ccc1C(F)(F)F [Compound 31]', 'delF508-CFTR (Homo sapiens, UniProt P13569, DEL508-508)', 5.67),
  ('CN(CCCC(=O)O)c1cccc(S(=O)(=O)Nc2ccc(C(F)(F)F)c(-c3ccccc3C3CC3)n2)n1 [Compound 41]', 'delF508-CFTR (Homo sapiens, UniProt P13569, DEL508-508)', 5.83),
  ('CCN(CCC(=O)O)c1cccc(S(=O)(=O)Nc2ccc(C(F)(F)F)c(-c3c(C)cccc3C)n2)n1 [Compound 145]', 'delF508-CFTR (Homo sapiens, UniProt P13569, DEL508-508)', 5.74);

Lookup: pEC50 / delF508-CFTR (Homo sapiens, UniProt P13569, DEL508-508) / CCCCN(CCC(=O)O)c1cccc(S(=O)(=O)Nc2ccc(C(F)(F)F)c(-c3ccccc3C)n2)n1 [Compound 152]
6.11
